Biological target: Androgen Receptor (Homo sapiens, UniProt P10275)
Construct: endogenous in cells; host or cells: VCaP cells
Assay: Androgen Receptor ELISA assay (PathScan AR ELISA) in VCaP cells: AR degradation, Dmax and DC50
Type: cell-based
Settings: VCaP cells; Table 36
Protocol: 1. Androgen Receptor ELISA Assay. The protocols used with VCaP cells are described below. The androgen receptor ELISA assay was performed using PathScan AR ELISA (Cell Signaling Catalog #12850) according to the following assay steps: […]

# COMPOUND, VCaP Dmax (%)
rows = [
    ("Cc1ncsc1-c1ccc([C@H](C)NC(=O)[C@@H]2C[C@@H](O)CN2C(=O)[C@@H](c2ncc(CCCN3CCN(c4ccc(C(=O)NC5C(C)(C)C(Oc6ccc(C#N)c(Cl)c6)C5(C)C)cn4)CC3)n2C)C(C)C)cc1 (stereo partly shown)", "+ (Dmax ≤ 25%)"),
    ("Cc1ncsc1-c1ccc(CNC(=O)[C@@H]2C[C@@H](O)CN2C(=O)C(NC(=O)COCCN2CCN(c3ccc(C(=O)N[C@H]4C(C)(C)[C@H](Oc5ccc(C#N)c(C(F)(F)F)c5)C4(C)C)cn3)C(=O)C2)C(C)(C)C)cc1 (stereo partly shown)", "+ (Dmax ≤ 25%)"),
]

----------
Biological target: Androgen Receptor (Homo sapiens, UniProt P10275)
Construct: endogenous in cells; host or cells: VCaP cells
Test: Androgen Receptor ELISA assay (PathScan AR ELISA) in VCaP cells: AR degradation, Dmax and DC50
Format: cell-based
Details: read-out: VCaP DC50; VCaP cells; Table 34
Experimental: 1. Androgen Receptor ELISA Assay. The protocols used with VCaP cells are described below. The androgen receptor ELISA assay was performed using PathScan AR ELISA (Cell Signaling Catalog #12850) according to the following assay steps: […]
READOUT LABEL: DC50

# lookup: DC50 of `Cc1ncsc1-c1ccc(CNC(=O)[C@H]2C[C@@H](O)CN2C(=O)[C@@H](NC(=O)[C@H](C)Oc2ccc(OCCOc3ccc(N4C(=S)N(c5ccc(C#N)c(C(F)(F)F)c5)C(=O)C4(C)C)cc3)cc2)C(C)(C)C)cc1`
< 50 nM

# lookup: DC50 of `Cc1ncsc1-c1ccc([C@H](C)NC(=O)[C@@H]2C[C@@H](O)CN2C(=O)[C@@H](NC(=O)COCCCCOc2ccc(-c3ccc(N4C(=S)N(c5ccc(C#N)c(C(F)(F)F)c5)C(=O)C4(C)C)cn3)cn2)C(C)(C)C)cc1`
< 50 nM

# lookup: DC50 of `CC(C)(C)[C@H](NC(=O)COCCCOCCCCOc1ccc(N2C(=S)N(c3cc(Cl)c(C#N)cc3F)C(=O)C2(C)C)cc1F)C(=O)N1C[C@H](O)C[C@H]1C(=O)NCc1ccc(-c2cnco2)cc1`
< 50 nM

# lookup: DC50 of `Cc1ncsc1-c1ccc(CNC(=O)[C@@H]2C[C@@H](O)CN2C(=O)[C@H](C(C)C)N2CC(OCCCOCCCOc3ccc(N4C(=S)N(c5ccc(C#N)c(C(F)(F)F)c5)C(=O)C4(C)C)cc3)=CC2=O)cc1`
< 50 nM

----------
Answer each item with its documented Dmax.
Target: Androgen Receptor (Homo sapiens, UniProt P10275)
Construct: endogenous in cells; host or cells: VCaP cells
Sequence (P10275 1-920): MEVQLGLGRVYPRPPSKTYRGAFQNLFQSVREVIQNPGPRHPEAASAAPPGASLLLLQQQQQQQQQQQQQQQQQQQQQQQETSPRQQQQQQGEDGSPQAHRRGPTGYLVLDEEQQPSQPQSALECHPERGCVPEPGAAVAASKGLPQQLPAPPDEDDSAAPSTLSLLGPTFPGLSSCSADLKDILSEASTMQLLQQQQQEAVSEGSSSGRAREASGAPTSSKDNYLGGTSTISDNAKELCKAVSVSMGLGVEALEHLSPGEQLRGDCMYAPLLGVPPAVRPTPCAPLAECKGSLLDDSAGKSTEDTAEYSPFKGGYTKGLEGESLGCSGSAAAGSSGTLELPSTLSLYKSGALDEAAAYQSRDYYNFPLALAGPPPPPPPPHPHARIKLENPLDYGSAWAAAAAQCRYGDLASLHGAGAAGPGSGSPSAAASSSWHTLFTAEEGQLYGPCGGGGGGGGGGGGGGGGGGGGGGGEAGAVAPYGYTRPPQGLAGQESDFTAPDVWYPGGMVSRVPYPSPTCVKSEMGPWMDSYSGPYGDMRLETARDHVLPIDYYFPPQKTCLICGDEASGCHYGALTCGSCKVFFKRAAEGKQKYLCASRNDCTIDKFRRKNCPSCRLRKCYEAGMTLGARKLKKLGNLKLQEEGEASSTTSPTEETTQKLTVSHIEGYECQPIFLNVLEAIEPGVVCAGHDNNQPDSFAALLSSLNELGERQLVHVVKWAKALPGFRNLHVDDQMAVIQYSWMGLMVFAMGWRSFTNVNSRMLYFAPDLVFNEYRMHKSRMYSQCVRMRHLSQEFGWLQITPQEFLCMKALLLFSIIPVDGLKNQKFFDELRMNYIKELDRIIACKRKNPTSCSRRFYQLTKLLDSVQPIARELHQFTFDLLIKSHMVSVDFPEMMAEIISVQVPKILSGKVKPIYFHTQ
Assay: Androgen Receptor ELISA assay (PathScan AR ELISA) in VCaP cells: AR degradation, Dmax and DC50
Type: cell-based
Details: VCaP, VCaP cells; Table 36; read-out: VCaP Dmax (%)
Protocol: 1. Androgen Receptor ELISA Assay. The protocols used with VCaP cells are described below. The androgen receptor ELISA assay was performed using PathScan AR ELISA (Cell Signaling Catalog #12850) according to the following assay steps: […]

# lookup: Dmax of Cc1ncsc1-c1ccc([C@@H](NC(=O)[C@@H]2C[C@@H](O)CN2C(=O)C(NC(=O)COCCN2CCN(c3ccc(C(=O)N[C@H]4C(C)(C)[C@H](Oc5ccc(C#N)c(C(F)(F)F)c5)C4(C)C)cn3)CC2)C(C)(C)C)C2COC2)cc1 (stereo partly shown)
26 to 50%

# lookup: Dmax of `Cc1ncsc1-c1ccc([C@H](C)NC(=O)[C@@H]2C[C@@H](O)CN2C(=O)[C@@H](NC(=O)CCCCN2C[C@H]3C[C@@H]2CN3c2ccc(C(=O)N[C@H]3C[C@H](Oc4ccc(C#N)c(Cl)c4)C3)cn2)C(C)(C)C)cc1`
< 25%

# lookup: Dmax of `CC(C)[C@H](C(=O)N1C[C@H](O)C[C@H]1C(=O)NCc1ccc(Cl)cc1)N1Cc2ccc(N3CCN(CCCc4ccc(C(=O)N[C@H]5C(C)(C)[C@H](Oc6ccc(C#N)c(C(F)(F)F)c6)C5(C)C)cc4)CC3)cc2C1=O`
< 25%

# lookup: Dmax of `CC(C)C[C@H](OCCN1CCN(c2ccc(C(=O)N[C@H]3C(C)(C)[C@H](Oc4ccc(C#N)c(Cl)c4)C3(C)C)cn2)CC1)C(=O)N[C@H](C(=O)N1C[C@H](O)C[C@H]1C(=O)NCc1ccc(Cl)cc1)C(C)C`
< 25%

Reference for the values: patent US11427548B2
